Data origin, for the record: ChEMBL document CHEMBL3097988

MIC by entry:
# System: Staphylococcus aureus
# TEST DESCRIPTION: Antimicrobial activity against Staphylococcus aureus ATCC 25923 after 16 to 18 hrs by […]
# Type: functional
READOUT TYPE: MIC

1) COc1cc(NC(=O)c2cc(F)cc(C(F)(F)F)c2)ccc1-n1cnc(Cl)c1 = 128 µg/mL
2) COc1cc(NC(=O)c2ccccc2)ccc1-n1cnc(Cl)c1 = 128 µg/mL
3) COc1cc(NC(=O)c2cccc([N+](=O)[O-])c2Cl)ccc1-n1cnc(Cl)c1 = 128 µg/mL
4) COc1cc(NS(=O)(=O)c2cccs2)ccc1-n1cnc(Cl)c1 = 128 µg/mL
5) COc1cc(NS(=O)(=O)c2c(F)ccc(C(F)(F)F)c2Cl)ccc1-n1cnc(Cl)c1 = 4 µg/mL

----------
# Tested on: Staphylococcus aureus
# TEST DESCRIPTION: Antimicrobial activity against Staphylococcus aureus ATCC 25923 after 16 to 18 hrs by […]
# Assay type: functional
READOUT TYPE: MIC

1) COc1cc(NC(=O)c2cccc(C(C)C#N)c2)ccc1-n1cnc(Cl)c1 (stereo not given) = 256 µg/mL
2) COc1cc(NS(=O)(=O)c2ccc(C(F)(F)F)cc2)ccc1-n1cnc(Cl)c1 = 4 µg/mL
3) COc1ccc(S(=O)(=O)Nc2ccc(-n3cnc(Cl)c3)c(OC)c2)cc1OC = 256 µg/mL
4) COc1cc(F)c(S(=O)(=O)Nc2ccc(-n3cnc(Cl)c3)c(OC)c2)c(C(F)(F)F)c1 = 64 µg/mL
5) COc1cc(NS(=O)(=O)c2cc(F)cc(C(F)(F)F)c2)ccc1-n1cnc(Cl)c1 = 4 µg/mL
6) COc1cc(NS(=O)(=O)c2ccccc2)ccc1-n1cnc(Cl)c1 = 8 µg/mL
7) COc1cc(NC(=O)Cc2cccc(C(F)(F)F)c2)ccc1-n1cnc(Cl)c1 = 128 µg/mL
8) COc1cc(NC(=O)c2ccc(C(F)(F)F)cc2)ccc1-n1cnc(Cl)c1 = 128 µg/mL
9) COc1cc(NS(=O)(=O)c2cccc(C(C)C#N)c2)ccc1-n1cnc(Cl)c1 (stereo not given) = 64 µg/mL
10) COc1cc(NS(=O)(=O)c2ccc([N+](=O)[O-])cc2)ccc1-n1cnc(Cl)c1 = 128 µg/mL

----------
# Tested on: Staphylococcus aureus
# TEST DESCRIPTION: Antimicrobial activity against Staphylococcus aureus ATCC 25923 after 16 to 18 hrs by […]
# Assay type: functional
# maps each entry to its MIC
READOUT TYPE: MIC (µg/mL)

1) O=C(O)c1cn(C2CC2)c2cc(N3CCNCC3)c(F)cc2c1=O [CIPROFLOXACIN] = 8
2) COc1cc(NS(=O)(=O)c2cccc([N+](=O)[O-])c2Cl)ccc1-n1cnc(Cl)c1 = 8
3) COc1cc(F)c(C(=O)Nc2ccc(-n3cnc(Cl)c3)c(OC)c2)c(F)c1 = 256
4) COc1cc(NC(=O)C2(c3ccc(Cl)cc3)CC2)ccc1-n1cnc(Cl)c1 = 64

----------
# Tested on: Staphylococcus aureus
# TEST DESCRIPTION: Antimicrobial activity against Staphylococcus aureus ATCC 25923 after 16 to 18 hrs by […]
# Assay type: functional
READOUT TYPE: MIC (µg/mL)

1. COc1cc(NC(=O)c2ccc([N+](=O)[O-])cc2)ccc1-n1cnc(Cl)c1 = 256
2. COc1cc(NC(=O)c2ccc(Cl)cc2Cl)ccc1-n1cnc(Cl)c1 = 128
3. COc1cc(NS(=O)(=O)C2(c3ccc(Cl)cc3)CC2)ccc1-n1cnc(Cl)c1 = 128
4. COc1cc(NC(=O)c2cccs2)ccc1-n1cnc(Cl)c1 = 128
5. COc1cc(NS(=O)(=O)c2ccc(Cl)cc2Cl)ccc1-n1cnc(Cl)c1 = 8
6. COc1cc(NS(=O)(=O)c2ccco2)ccc1-n1cnc(Cl)c1 = 128
7. COc1cc(NS(=O)(=O)Cc2cccc(C(F)(F)F)c2)ccc1-n1cnc(Cl)c1 = 4

----------
# System: Mycobacterium tuberculosis
# TEST DESCRIPTION: Antimicrobial activity against Mycobacterium tuberculosis H37Rv ATCC 27294 at 1 to 100 ug/ml after 7 days by resazurin assay
# Format: functional
READOUT TYPE: inhibition (INH)

1) CO[C@H]1/C=C/O[C@@]2(C)Oc3c(C)c(O)c4c(O)c(c(/C=N/N5CCN(C)CC5)c(O)c4c3C2=O)NC(=O)/C(C)=C\C=C\[C@H](C)[C@H](O)[C@@H](C)[C@@H](O)[C@@H](C)[C@H](OC(C)=O)[C@@H]1C = 95%
2) COc1cc(F)c(C(=O)Nc2ccc(-n3cnc(Cl)c3)c(OC)c2)c(F)c1 = <90%
3) NNC(=O)c1ccncc1 = 95%
4) COc1cc(F)c(S(=O)(=O)Nc2ccc(-n3cnc(Cl)c3)c(OC)c2)c(C(F)(F)F)c1 = <90%
5) COc1ccc(C(=O)Nc2ccc(-n3cnc(Cl)c3)c(OC)c2)cc1 = 0%
6) COc1cc(NS(=O)(=O)Cc2cccc(C(F)(F)F)c2)ccc1-n1cnc(Cl)c1 = 90%
7) COc1ccc(S(=O)(=O)Nc2ccc(-n3cnc(Cl)c3)c(OC)c2)cc1OC = 90%
8) COc1cc(NC(=O)c2cccs2)ccc1-n1cnc(Cl)c1 = 90%
9) COc1cc(NC(=O)c2cccc(C(C)C#N)c2)ccc1-n1cnc(Cl)c1 (stereo not given) = 90%
10) COc1cc(NS(=O)(=O)c2cccc([N+](=O)[O-])c2Cl)ccc1-n1cnc(Cl)c1 = <90%

----------
Consider the following compounds and their measured MIC readings.
# System: Staphylococcus aureus
# TEST DESCRIPTION: Antimicrobial activity against Staphylococcus aureus ATCC 25923 after 16 to 18 hrs by […]
# Format: functional
READOUT TYPE: MIC

1. COc1ccc(C(=O)Nc2ccc(-n3cnc(Cl)c3)c(OC)c2)cc1 = > 256 µg/mL
2. COc1ccc(C(=O)Nc2ccc(-n3cnc(Cl)c3)c(OC)c2)cc1OC = > 256 µg/mL
3. COc1cc(NC(=O)c2ccco2)ccc1-n1cnc(Cl)c1 = > 256 µg/mL
